The values you see were collected from patent US9458113B2.

- System: human hepatocytes
- PROTOCOL_TEXT: Metabolic stability with human hepatocytes
- Assay type: in vitro ADME
- COND: 1 μM test compound, well stirred model
OBSERVABLE: Qh
Write your answer as a measured quantity: the number, then the unit.

Some molecules with recorded Qh:
[[record]]
molecule = "CN1C(=O)N(c2cccc(C(F)(F)F)c2)C2=C(C(=O)CC2)C1c1ccc(C#N)cc1-c1cncnc1 (stereo not drawn)"
result = "23%"

[[record]]
molecule = "CN1C(=O)N(c2cccc(C(F)(F)F)c2)C2=C(C(=O)CC2)C1c1ccc(C#N)cc1-c1ccncn1 (stereo not drawn)"
result = "12%"


Value of measured Qh for the entry `CN1C(=O)N(c2cccc(C(F)(F)F)c2)C2=C(C(=O)CC2)[C@H]1c1ccc(C#N)cc1CNC(C)(C)C` : 10%
